Where do the numbers come from? From ChEMBL document CHEMBL1201861.

Overview of recorded IC50 for various compounds
system: C32; assay: cells; assay type: functional, cell-based, Homo sapiens; settings: Homo sapiens, C32;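 also: cell viability assay, with IC50 reflecting inhibition of C32 cell growth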
Description: SANGER: Inhibition of human C32 cell growth in a cell viability assay.
Where a name gives a salt, the structure may show the parent alone.

Previously resolved entries follow.
compound: COC1=CC(c2cc3ccccc3[nH]2)=N/C1=C\c1[nH]c(C)cc1C [OBATOCLAX MESYLATE]
measuredResult: 0.452 µM
--
compound: CN(C)C(=N)NC(=N)N
measuredResult: > 20000 µM
--
compound: Nc1ccn([C@@H]2O[C@H](CO)[C@@H](O)C2(F)F)c(=O)n1
measuredResult: > 1.02 µM

Lookup: # get_value(readout='IC50', item= `Oc1ccc2ccccc2c1SSc1c(O)ccc2ccccc12` )
Found: > 32 µM
